Target: Recombinant (1-346) HPK1 (h) (Homo sapiens)
Construct: Recombinant (1-346) HPK1 (h) is incubated with 8 mM MOPS pH 7.0
Sequence (Q92918 1-346): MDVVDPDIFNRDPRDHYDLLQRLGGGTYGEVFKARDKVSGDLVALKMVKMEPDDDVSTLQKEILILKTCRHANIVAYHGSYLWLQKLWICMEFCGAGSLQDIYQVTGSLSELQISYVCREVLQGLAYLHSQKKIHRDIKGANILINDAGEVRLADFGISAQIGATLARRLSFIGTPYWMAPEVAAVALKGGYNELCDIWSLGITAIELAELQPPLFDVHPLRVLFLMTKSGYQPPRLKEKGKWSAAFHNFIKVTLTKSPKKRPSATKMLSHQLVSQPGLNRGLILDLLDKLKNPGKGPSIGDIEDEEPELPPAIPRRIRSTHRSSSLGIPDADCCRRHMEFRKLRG
Assay: HPK1 Human STE Kinase Enzymatic Radiometric Assay
Format: biochemical
Settings: read-out: HPK1 IC50 nM Range*
IC50 values by entry
readoutType: IC50

* CCN(C)Cc1nc(-c2cc(-c3cc4c(cc3F)C(=O)NCC4)c(N)nc2F)ccc1C1CCOCC1 | 0.1 to 10 nM
* CN(C)Cc1cc(-c2cc(-c3ccc4c(c3)CCNC4=O)c(N)nc2F)ccc1N1CCN(C2CC2)CC1 | 11 to 100 nM
* CC(C)N1CCC(Oc2ccc(-c3cc(-c4cc5c(cc4F)C(=O)NCC5)c(N)nc3F)cc2C#N)CC1 | 0.1 to 10 nM
* COc1ccc(-c2cc(-c3ccc4c(c3)CCNC4=O)c(N)nc2F)cc1CN1CCC(OC)CC1 | 11 to 100 nM
* Cc1c[nH]c(=O)c2cc(F)c(-c3cc(-c4ccc(N5CCN(C(C)C)CC5)cc4)c(F)nc3N)cc12 | 0.1 to 10 nM
* CN(C)Cc1cc(-c2cc(-c3cc(F)c4c(c3)CCNC4=O)c(N)nc2F)ccc1C1CCOCC1 | 0.1 to 10 nM
* CCN1CCN(c2ccc(-c3cc(-c4cc5c(cc4F)C(=O)NCC5)c(N)nc3F)cc2)CC1 | 0.1 to 10 nM
* COc1cc(-c2cc(-c3ccc4c(c3)CCNC4=O)c(N)nc2F)ccc1OC1CCNCC1 | 11 to 100 nM
* COCCN1CCC(c2ccc(-c3cc(-c4ccc5c(c4)CCNC5=O)c(N)nc3F)cc2)CC1 | 0.1 to 10 nM

----------
IC50 values by entry
Molecular target: Recombinant (1-346) HPK1 (h) (Homo sapiens)
Construct: Recombinant (1-346) HPK1 (h) is incubated with 8 mM MOPS pH 7.0
Experiment: HPK1 Human STE Kinase Enzymatic Radiometric Assay
Type: biochemical
Settings: read-out: HPK1 IC50 nM Range*
Protocol: A stock solution of 10 mM of test compound is prepared in DMSO. The compound plate was prepared by 3-fold and 9-point serial dilutions. […] The reaction is initiated by The addition of the Mg/ATP mix. After incubation for 40 minutes at RT, the reaction is stopped by the addition of phosphoric acid to a concentration of 0.5%.
readoutType: IC50

• CC(C)N1CCC[C@H](Oc2ccc(-c3cc(-c4ccc5c(c4)CCNC5=O)c(N)nc3F)cc2)C1 = 0.1 to 10 nM
• Nc1nc(F)c(-c2cc(F)c(OC3CCNCC3)cc2F)cc1-c1ccc2c(c1)CCNC2=O = 11 to 100 nM
• CN(C)Cc1c(N2CCOCC2)ccc(-c2cc(-c3cc4c(cc3F)C(=O)NCC4)c(N)nc2F)c1F = 11 to 100 nM
• CN(C)Cc1cc(-c2cc(-c3cc4c(cc3F)C(=O)NCC4)c(N)nc2F)ccc1N1CCOCC1 = 0.1 to 10 nM
• CN1CCC(Oc2ccc(-c3cc(-c4ccc5c(c4)CCNC5=O)c(N)nc3F)cc2)CC1 = 0.1 to 10 nM
• CC(C)N1CC=C(c2ccc(-c3cc(-c4ccc5c(c4)CCNC5=O)c(N)nc3F)cc2)CC1 = 0.1 to 10 nM
• Nc1nc(F)c(-c2ccc(OC3CCN(C(=O)C4CC4)CC3)cc2)cc1-c1ccc2c(c1)CCNC2=O = 0.1 to 10 nM
• Nc1nc(F)c(-c2ccc(C3=CCN(CC(F)F)C3)cc2)cc1-c1ccc2c(c1)CCNC2=O = 0.1 to 10 nM
• COC1CCN(Cc2cc(-c3cc(-c4cc5c(cc4F)C(=O)NCC5)c(N)nc3F)ccc2N2CCSCC2)CC1 = 11 to 100 nM
• Nc1nc(F)c(-c2ccc(N3CCN(CCC4CC4(F)F)CC3)cc2)cc1-c1ccc2c(c1)CCNC2=O (stereo not shown) = 0.1 to 10 nM
